Biological target: GABA-A receptor; alpha-1/beta-3/gamma-2 (Homo sapiens, UniProt P14867+P18507+P28472)
Sequence (P14867 whole entry): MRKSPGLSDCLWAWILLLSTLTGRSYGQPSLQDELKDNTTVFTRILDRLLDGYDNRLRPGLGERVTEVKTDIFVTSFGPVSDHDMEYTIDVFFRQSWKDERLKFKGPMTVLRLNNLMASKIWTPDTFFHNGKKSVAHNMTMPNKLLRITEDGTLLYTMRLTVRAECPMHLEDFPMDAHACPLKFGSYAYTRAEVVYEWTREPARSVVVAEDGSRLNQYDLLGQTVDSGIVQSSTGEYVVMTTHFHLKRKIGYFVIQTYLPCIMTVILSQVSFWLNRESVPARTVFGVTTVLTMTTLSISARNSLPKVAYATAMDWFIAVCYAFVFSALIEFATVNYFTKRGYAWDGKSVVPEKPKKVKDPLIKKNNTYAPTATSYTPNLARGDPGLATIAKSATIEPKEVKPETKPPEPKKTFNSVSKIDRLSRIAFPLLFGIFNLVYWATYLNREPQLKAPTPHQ
Sequence (P18507 whole entry): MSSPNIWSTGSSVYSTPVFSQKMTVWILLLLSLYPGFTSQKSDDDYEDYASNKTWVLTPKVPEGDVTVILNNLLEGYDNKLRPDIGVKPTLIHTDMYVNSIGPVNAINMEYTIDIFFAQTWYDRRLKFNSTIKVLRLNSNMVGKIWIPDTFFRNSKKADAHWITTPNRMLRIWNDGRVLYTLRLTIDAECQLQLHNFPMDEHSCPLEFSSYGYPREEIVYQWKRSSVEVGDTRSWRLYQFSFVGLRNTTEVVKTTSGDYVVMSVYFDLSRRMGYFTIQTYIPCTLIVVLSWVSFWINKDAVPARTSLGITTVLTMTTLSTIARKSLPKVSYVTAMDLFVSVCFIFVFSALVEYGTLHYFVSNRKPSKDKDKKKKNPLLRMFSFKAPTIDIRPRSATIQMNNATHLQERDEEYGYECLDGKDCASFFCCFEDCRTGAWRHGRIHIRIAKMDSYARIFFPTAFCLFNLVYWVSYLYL
Sequence (P28472 whole entry): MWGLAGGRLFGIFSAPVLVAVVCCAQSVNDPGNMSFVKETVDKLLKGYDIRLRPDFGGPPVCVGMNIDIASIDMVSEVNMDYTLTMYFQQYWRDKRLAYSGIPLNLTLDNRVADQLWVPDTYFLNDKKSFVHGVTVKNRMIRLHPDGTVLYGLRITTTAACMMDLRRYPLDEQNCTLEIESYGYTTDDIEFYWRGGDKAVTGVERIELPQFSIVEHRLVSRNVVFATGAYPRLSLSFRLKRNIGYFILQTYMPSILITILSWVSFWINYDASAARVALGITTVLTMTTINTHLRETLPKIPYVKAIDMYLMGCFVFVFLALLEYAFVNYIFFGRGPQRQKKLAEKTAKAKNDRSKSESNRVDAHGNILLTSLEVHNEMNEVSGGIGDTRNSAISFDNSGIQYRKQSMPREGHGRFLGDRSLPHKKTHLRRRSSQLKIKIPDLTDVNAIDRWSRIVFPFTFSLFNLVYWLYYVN
Experiment: Displacement of [3H]-Ro 15-1788 from Homo sapiens (human) recombinant GABAA alpha1beta3gamma2 receptor expressed in Ltk- cells after 1 hr by liquid scintillation counting
Assay type: cell-based
Catalogue of compounds with associated Ki

Field: example entries. Status: answers known.
# Smiles entry, Ki
data = [
    ("CC(C)(C)OC(=O)c1ncn2c1[C@@H]1CCCN1C(=O)c1cc(C#C[Si](C)(C)C)ccc1-2", "> 333 nM"),
    ("C[Si](C)(C)C#Cc1ccc2c(c1)C(=O)N1CCC[C@H]1c1c(C(=O)OCC(F)(F)F)ncn1-2", "> 333 nM"),
    ("O=C(OCC(F)(F)F)c1ncn2c1[C@@H]1CCCN1C(=O)c1cc(Br)ccc1-2", "> 333 nM"),
]

Continue with the next compound.
INPUT: What measured Ki is associated with `C#Cc1ccc2c(c1)C(=O)N1CCC[C@H]1c1c(C(=O)OC(C)(C)C)ncn1-2` on GABA-A receptor; alpha-1/beta-3/gamma-2 (Homo sapiens, UniProt P14867+P18507+P28472)?
OUTPUT: > 333 nM
